Biological target: Small conductance calcium-activated potassium channel (Rattus norvegicus) (UniProt P70604+P70606+P70605)
Experiment: Displacement of [125I]apamin from SK channel in Wistar rat cortex at 10 uM
Reported Activity values are given for each entry in this list.

Problem: What does the data say about its Activity? Entry: C[n+]1ccc2ccccc2c1CCCCCc1c2ccccc2cc[n+]1C.[I-].[I-]
Solution: > 58%

Problem: May I ask what Activity has been recorded for COc1cc2cc[n+](C)c(CCCCc3c4c(OC)c(OC)c(OC)cc4cc[n+]3C)c2c(OC)c1OC.[I-].[I-] ?
Solution: > 58%

Problem: # input molecule: COc1cc2cc[n+](C)c(CCCc3c4c(OC)c(OC)c(OC)cc4cc[n+]3C)c2c(OC)c1OC.[I-].[I-] ; wanted: its Activity
Solution: > 58%
